meta.source: patent US9511134B2

Assay target: DRB1*0405 (Homo sapiens, UniProt P01903+P01911, A100R/A169T/D86S/F76Y/I96L/K127E/L162R/M171V/N62H/P40V/Q125Y/R42H/S133A/S149N/S66Y/V115G/V209L/W38E)
Protocol description: biochemical
Assay type: binding
Condition parameters: read-out: IC50 nM to purified HLA DRB1*0405
Where no end group is shown, it is not given here.
Measured quantity: IC50 (nM)

1) LILYDKEEIRRIWRQ [Flu.NP.111]: 7500
2) ALQLLFEVEQEIRTF [Flu.NS2.178]: 8870
3) GSYFFGDNAEEYDN [Flu.NP.488]: 65
4) MVAYMLERELVRKTR [Flu.PB2.205]: 5540
